Form field: MCF7 pHER3 % inhibition (one value per entry).
target.desc: human HER3 endogenously expressed on human cancer cells (SK-Br-3, BT-474, MCF7) (human, UniProt P21860 20-1342)
assay.summary: cell-based or functional assay
Enter your answer as a number in %; do not include the unit.

Ask | Looking for the measured MCF7 pHER3 % inhibition of MOR13659 (antibody, human IgG1, lambda, V domains shown) VH: QVQLVQSGAEVKKPGASVKVSCKASGYTFTSYDIHWVRQAPGQGLEWMGRIDPYSGNTNYAQKFQGRVTMTRDTSISTAYMELSRLRSEDTAVYYCARGSFYTRDSYFDVWGQGTLVTVSS VL: DIALTQPASVSGSPGQSITISCTGTSSDVGTYNQVSWYQQHPGKAPKLMIYGVSKRPSGVSNRFSGSKSGNTASLTISGLQAEDEADYYCGSRTSHNWVFGGGTKLTVLG , can you help?
Reply | 66

Ask | Try this binder too: MOR13660 (antibody, human IgG1, lambda, V domains shown) VH: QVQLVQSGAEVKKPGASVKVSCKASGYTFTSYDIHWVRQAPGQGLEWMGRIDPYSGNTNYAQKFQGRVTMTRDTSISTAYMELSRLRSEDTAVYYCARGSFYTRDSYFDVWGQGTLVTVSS VL: DIALTQPASVSGSPGQSITISCTGTSSDVGTYNQVSWYQQHPGKAPKLMIYGVSKRPSGVSNRFSGSKSGNTASLTISGLQAEDEADYYCAVRGSQTLVFGGGTKLTVLG
Reply | 49

Ask | Next record, please: MOR12516 (antibody, human IgG1, lambda, V domains shown, Tested as IgG) VH: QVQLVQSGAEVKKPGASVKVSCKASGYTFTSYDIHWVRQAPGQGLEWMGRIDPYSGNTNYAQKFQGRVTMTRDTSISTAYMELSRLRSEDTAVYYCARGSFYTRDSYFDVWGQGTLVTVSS VL: DIALTQPASVSGSPGQSITISCTGTSSDVGTYNQVSWYQQHPGKAPKLMIYGVSKRPSGVSNRFSGSKSGNTASLTISGLQAEDEADYYCQSRDTYRPVKVFGGGTKLTVLG
Reply | 62

Ask | Do the same for MOR12603 (antibody, human IgG1, kappa, V domains shown, Tested as IgG) VH: QVQLVQSGAEVKKPGSSVKVSCKASGGTFSSYAISWVRQAPGQGLEWMGLIIPRYGKARYAQKFQGRVTITADESTSTAYMELSSLRSEDTAVYYCARNWPYYYMDFWGQGTLVTVSS VL: DIVLTQSPATLSLSPGERATLSCRASQNIVFNLAWYQQKPGQAPRLLIYDASNRATGVPARFSGSGSGTDFTLTISSLEPEDFAVYYCQQTKNRPPTFGQGTKVEIKR please
Reply | 77

Next:
Ask | Fill blank: measured MCF7 pHER3 % inhibition of the binder MOR13663 (antibody, human IgG1, lambda, V domains shown) VH: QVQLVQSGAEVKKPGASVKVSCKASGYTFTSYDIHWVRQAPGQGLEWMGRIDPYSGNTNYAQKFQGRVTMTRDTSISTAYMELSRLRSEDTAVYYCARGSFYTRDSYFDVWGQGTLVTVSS VL: DIALTQPASVSGSPGQSITISCTGTSSDVGTYNQVSWYQQHPGKAPKLMIYGVSKRPSGVSNRFSGSKSGNTASLTISGLQAEDEADYYCSVWTSIKVFVFGGGTKLTVLG is ____.
Reply | 58
